Entry source: paper PMC7674464

Where no end group is shown, it is not given here.
measure: amide I band peak position (cm⁻¹)

- GLFGAIAGFIEGGWTGMIDGWYGS [influenza fusion peptide]: 1660
